Values compiled from patent US9815851B2.

Measured Target: RORγ (UniProt P51449)
Experimental Details: RORγ Gal4 Reporter Gene Assay in 293T cells (firefly and renilla luciferase)
Assay type: cell-based, human
Condition Label: third value of the cell; Gal4 reporter gene assay in 293T cells, renilla normalised luciferase
Experimental Endpoint: pIC50 (REN)

{"columns": ["Compound", "Assay Result"],
 "data": [
  ["Cc1c(C(=O)NCC2(C(N)=O)CCOCC2)cc(-c2ccc(S(=O)(=O)NC(C)(C)C)c3ccccc23)n1CC1CCCCC1 [17/267]", 8.0],
  ["Cc1c(C(=O)N2CCOCC2)cc(-c2cc(C(C)(C)C)cc(C(C)(C)C)c2)n1CC1CCCCC1 [1/52]", 6.5],
  ["Cc1c(C(=O)NC2CCOCC2)cc(-c2ccc(-c3ccnn3C(C)C)c(C(C)(C)C)c2)n1CC1CCCCC1 [Example 26]", 7.6],
  ["Cc1c(C(=O)NCC(C)(C)O)cc(-c2cc(OC(F)(F)F)cc(C3(C)CC3)c2)n1CC1CCCCC1 [17/348]", 7.0],
  ["Cc1c(C(=O)N2CC(C(C)(C)C(=O)O)C2)cc(-c2ccc(S(=O)(=O)NC(C)(C)C)c(C(F)(F)F)c2)n1CC1CCCCC1 [17/180]", 7.2],
  ["Cc1c(C(=O)NC2CCOCC2)cc(-c2cc(C(C)(C)O)cc(C(F)(F)F)c2)n1CC1CCCCC1 [17/306]", 6.9],
  ["Cc1c(C(=O)NCC(C)(C)C(=O)O)cc(-c2cc(C(C)(C)C)nc(C(C)(C)C)n2)n1CC1CCCCC1 [17/353]", 6.8]
]}

###

Measured Target: RORγ (UniProt P51449)
Sequence (P51449 1-518): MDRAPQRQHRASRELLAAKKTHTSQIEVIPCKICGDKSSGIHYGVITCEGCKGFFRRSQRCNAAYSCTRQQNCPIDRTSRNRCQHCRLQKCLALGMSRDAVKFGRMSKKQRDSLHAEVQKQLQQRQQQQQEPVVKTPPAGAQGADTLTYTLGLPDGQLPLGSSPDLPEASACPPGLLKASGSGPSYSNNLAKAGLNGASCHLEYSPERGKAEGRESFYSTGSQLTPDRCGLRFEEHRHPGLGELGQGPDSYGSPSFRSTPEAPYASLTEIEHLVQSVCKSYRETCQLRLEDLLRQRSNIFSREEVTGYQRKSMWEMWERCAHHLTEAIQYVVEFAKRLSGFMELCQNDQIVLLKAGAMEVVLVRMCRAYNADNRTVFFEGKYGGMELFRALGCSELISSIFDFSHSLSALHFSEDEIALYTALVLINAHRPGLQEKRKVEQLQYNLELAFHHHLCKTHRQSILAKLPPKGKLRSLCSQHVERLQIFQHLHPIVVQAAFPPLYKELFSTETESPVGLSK
Experimental Details: RORγ Gal4 Reporter Gene Assay in 293T cells (firefly and renilla luciferase)
Format: cell-based, human
Condition Label: second value of the cell; Gal4 reporter gene assay in 293T cells, firefly luciferase
Please enter TRUE where pIC50 (FF) is greater than or equal to 7, and FALSE where it is lower.

{"columns": ["Molecule", "Category"],
 "data": [
  ["Cc1c(C(=O)N2CCOC(C(=O)O)C2)cc(-c2ccc(S(=O)(=O)NC(C)(C)C)c(C(F)(F)F)c2)n1CC1CCCCC1 (centres unmarked)", "FALSE"],
  ["Cc1c(C(=O)NCC2(C(N)=O)CCOCC2)cc(-c2cc(C(C)(C)O)cc(C3(C)CC3)c2)n1CC1CCCCC1", "TRUE"],
  ["Cc1c(C(=O)NCC(C)(C)O)cc(-c2ccc(S(=O)(=O)NC(C)(C)C)c3ccccc23)n1CC1CCCCC1", "TRUE"],
  ["Cc1c(C(=O)NCCc2nnn[nH]2)cc(-c2cc(C(C)(C)C)cc(C3(C)CC3)c2)n1CC1CCCCC1", "TRUE"],
  ["Cc1c(C(=O)NC2CCOCC2)cc(-c2ccc(S(=O)(=O)NC3(C)COC3)c(C(F)(F)F)c2)n1CC1CCCCC1", "TRUE"],
  ["Cc1c(C(=O)NCCCCCS(N)(=O)=O)cc(-c2cc(C(C)(C)C)c3c(c2)C2(CCO3)CC2)n1CC1CCCCC1", "FALSE"],
  ["Cc1c(C(=O)NCCC(=O)O)cc(-c2cc(C(C)(C)C)cc(C(C)(C)C)c2)n1CC1CCCCC1", "FALSE"],
  ["Cc1c(C(=O)NC2CCOCC2)cc(-c2ccc(S(=O)(=O)NCC3(C)COC3)c(C(F)(F)F)c2)n1CC1CCCCC1", "FALSE"],
  ["Cc1c(C(=O)NC2COC2)cc(-c2cc(C(=O)NC(C)C)cc(C(C)(C)C)c2)n1CC1CCCCC1", "TRUE"],
  ["Cc1c(C(=O)N2CCCC(C)(C(=O)O)C2)cc(-c2ccc(S(=O)(=O)NC(C)(C)C)c(C(F)(F)F)c2)n1CC1CCCCC1 (centres unmarked)", "TRUE"]
]}
